Each entry below carries its recorded inhibition at 3 µM.
system: Thoracic aortic rings; experiment: Thoracic aortic rings assay; parameters: species or system rat; settings: 3 μM compound; rat thoracic aortic rings contracted with 100 ng/mL phenylephrine; read-out: Percent Relaxation at 3 μM

{"columns": ["molecule", "inhibition at 3 µM"],
 "data": [
  ["Fc1ccc(-c2nc(-c3nccs3)n(Cc3ccccc3F)n2)nc1 [Compound I-38]", "80 to 100%"],
  ["Fc1ccccc1Cn1nc(-c2ncccn2)nc1-c1cocn1 [Compound I-46]", "60 to 80%"],
  ["Fc1ccccc1Cn1nc(-c2cscn2)nc1-c1nccs1 [Compound I-40]", "60 to 80%"],
  ["Fc1ccccc1Cn1nc(-c2ccccn2)nc1-c1ccccn1 [Compound I-1]", "60 to 80%"],
  ["Nc1ccnc(-c2nc(-c3nccs3)n(Cc3ccccc3F)n2)c1 [Compound I-44]", "100 to 120%"],
  ["Fc1ccccc1Cn1nc(-c2ccccn2)nc1-c1nccs1 [Compound I-25]", "80 to 100%"],
  ["COC(=O)N(C)c1c(N)nc(-c2nc(-c3nccs3)n(Cc3ccccc3F)n2)nc1N [Compound I-61]", "80 to 100%"],
  ["Fc1ccccc1Cn1nc(-c2ccccn2)nc1-c1cscn1 [Compound I-4]", "100 to 120%"],
  ["Nc1ccnc(-c2nc(-c3nccs3)n(Cc3ccccc3F)n2)n1 [Compound I-48]", "80 to 100%"],
  ["Fc1ccccc1Cn1nc(-c2ccccn2)nc1-c1cocn1 [Compound I-12]", "80 to 100%"],
  ["Fc1ccccc1Cn1nc(-c2nccs2)nc1-c1cscn1 [Compound I-41]", "100 to 120%"],
  ["Fc1ccccc1Cn1nc(-c2ncccn2)nc1-c1nccs1 [Compound I-30]", "60 to 80%"],
  ["Fc1ccccc1Cn1nc(-c2ncccn2)nc1-c1cscn1 [Compound I-3]", "80 to 100%"],
  ["Fc1ccccc1Cn1nc(-c2ccccn2)nc1-c1ncco1 [Compound I-6]", "60 to 80%"],
  ["Nc1ccnc(-c2nc(-c3cscn3)n(Cc3ccccc3F)n2)c1 [Compound I-53]", "80 to 100%"],
  ["Fc1ccccc1Cn1nc(-c2ccccn2)nc1-n1cncn1 [Compound I-50]", "20 to 40%"]
]}

----------
Molecular target: soluble guanylate cyclase (sGC) (Homo sapiens, UniProt Q02108+Q02153)
Construct: endogenously expressing soluble guanylate cyclase (sGC); endogenous in cells; host or cells: HEK293
Sequence (Q02153 1-619): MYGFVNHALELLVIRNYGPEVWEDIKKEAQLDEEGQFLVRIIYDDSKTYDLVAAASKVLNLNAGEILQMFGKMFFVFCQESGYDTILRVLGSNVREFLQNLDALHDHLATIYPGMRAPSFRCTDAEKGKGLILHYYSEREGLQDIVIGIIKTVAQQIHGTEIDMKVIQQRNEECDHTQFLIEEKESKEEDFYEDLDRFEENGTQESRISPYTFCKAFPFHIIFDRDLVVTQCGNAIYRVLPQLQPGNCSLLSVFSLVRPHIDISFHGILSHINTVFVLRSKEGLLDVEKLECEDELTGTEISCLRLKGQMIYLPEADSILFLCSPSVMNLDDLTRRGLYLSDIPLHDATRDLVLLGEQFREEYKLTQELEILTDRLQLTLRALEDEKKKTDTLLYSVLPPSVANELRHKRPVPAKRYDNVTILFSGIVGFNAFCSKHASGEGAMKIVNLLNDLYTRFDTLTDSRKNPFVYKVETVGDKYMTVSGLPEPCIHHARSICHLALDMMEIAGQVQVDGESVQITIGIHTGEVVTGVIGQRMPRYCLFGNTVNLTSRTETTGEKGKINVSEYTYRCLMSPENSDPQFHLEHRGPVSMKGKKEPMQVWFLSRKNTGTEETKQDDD
Sequence (Q02108 1-690): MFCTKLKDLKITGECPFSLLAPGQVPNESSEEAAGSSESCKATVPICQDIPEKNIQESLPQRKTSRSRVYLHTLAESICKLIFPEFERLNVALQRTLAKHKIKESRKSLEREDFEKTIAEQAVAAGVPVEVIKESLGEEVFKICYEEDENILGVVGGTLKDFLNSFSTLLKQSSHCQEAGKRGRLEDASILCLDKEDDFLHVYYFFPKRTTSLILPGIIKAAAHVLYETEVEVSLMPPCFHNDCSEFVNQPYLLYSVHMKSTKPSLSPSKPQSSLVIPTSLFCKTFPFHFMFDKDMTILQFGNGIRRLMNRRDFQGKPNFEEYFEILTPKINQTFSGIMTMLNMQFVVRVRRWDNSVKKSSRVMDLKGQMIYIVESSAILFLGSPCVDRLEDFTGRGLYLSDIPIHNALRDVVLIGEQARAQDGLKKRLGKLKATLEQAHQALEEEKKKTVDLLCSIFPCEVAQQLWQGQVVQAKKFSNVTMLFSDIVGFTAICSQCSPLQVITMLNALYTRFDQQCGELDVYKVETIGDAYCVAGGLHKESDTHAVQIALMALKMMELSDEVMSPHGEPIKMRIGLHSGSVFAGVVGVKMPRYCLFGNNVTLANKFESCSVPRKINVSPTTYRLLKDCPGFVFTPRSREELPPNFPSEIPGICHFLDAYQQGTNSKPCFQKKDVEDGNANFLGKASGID
Assay: sGC-HEK-cGMP assay
Format: cell-based
Settings: compound at 30 μM, HEK293 cells, 10 μM SNP; percentage of sGC activity obtained with positive control BAY 41-2272 (= 100%)
property_label: Emax at 30 µM

{"columns": ["chemical_structure", "property_label", "recorded_result"],
 "data": [
  ["Fc1ccccc1Cn1nc(-c2ncccn2)nc1-c1ccon1", "Emax at 30 µM", "0 to 5%"],
  ["Fc1ccccc1Cn1nc(-c2ccccn2)nc1-c1ccccc1", "Emax at 30 µM", "5 to 10%"],
  ["Fc1ccc(-c2nc(-c3nccs3)n(Cc3ccccc3F)n2)nc1", "Emax at 30 µM", "20 to 40%"],
  ["COC(=O)Nc1c(N)nc(-c2nc(-c3nccs3)n(Cc3ccccc3F)n2)nc1N", "Emax at 30 µM", "20 to 40%"],
  ["Fc1ccccc1Cn1nc(-c2ccccn2)nc1-c1nccs1", "Emax at 30 µM", "40 to 60%"],
  ["Fc1ccccc1Cn1nc(-c2nccs2)nc1-c1cocn1", "Emax at 30 µM", "20 to 40%"],
  ["Fc1ccccc1Cn1nc(-c2ccccn2)nc1-c1nnco1", "Emax at 30 µM", "5 to 10%"],
  ["Fc1ccccc1Cn1nc(-c2ccccn2)nc1-c1cocn1", "Emax at 30 µM", "40 to 60%"],
  ["Fc1ccccc1Cn1nc(-c2ncco2)nc1-c1ncccn1", "Emax at 30 µM", "0 to 5%"]
]}

----------
target: soluble guanylate cyclase (sGC) (Homo sapiens, UniProt Q02108+Q02153); construct: endogenously expressing soluble guanylate cyclase (sGC); endogenous in cells; host or cells: HEK293; test: sGC-HEK-cGMP assay; type: cell-based; conditions: compound at 10 μM, HEK293 cells, 10 μM SNP; percentage of sGC activity obtained with positive control BAY 41-2272 (= 100%)

{"columns": ["compound", "Emax at 10 µM"],
 "data": [
  ["Fc1ccccc1Cn1nc(-c2ccccn2)nc1-c1cscn1 [Compound I-4]", "20 to 40%"],
  ["Nc1cccc(-c2nc(-c3nccs3)n(Cc3ccccc3F)n2)n1 [Compound I-14]", "5 to 10%"],
  ["Fc1ccccc1Cn1nc(-c2nccs2)nc1-c1ncccn1 [Compound I-29]", "0 to 5%"],
  ["Fc1ccccc1Cn1nc(-c2ccccn2)nc1-c1nccs1 [Compound I-25]", "20 to 40%"],
  ["Fc1ccccc1Cn1nc(-c2nccs2)nc1-c1cocn1 [Compound I-63]", "60 to 80%"],
  ["Fc1ccccc1Cn1nc(-c2ccccn2)nc1-n1cncn1 [Compound I-50]", "20 to 40%"],
  ["Fc1ccccc1Cn1nc(-c2ccccn2)nc1-c1ncco1 [Compound I-6]", "20 to 40%"],
  ["Fc1ccccc1Cn1nc(-c2cc(Br)ccn2)nc1-c1nccs1 [Compound I-36]", "0 to 5%"],
  ["Fc1ccccc1Cn1nc(-c2ccccn2)nc1-c1ccccn1 [Compound I-1]", "5 to 10%"],
  ["Fc1ccccc1Cn1nc(-c2ccccn2)nc1-c1cocn1 [Compound I-12]", "20 to 40%"],
  ["Fc1ccccc1Cn1nc(-c2ccccn2)nc1-c1nnco1 [Compound I-42]", "0 to 5%"],
  ["Fc1ccccc1Cn1nc(-c2ncco2)nc1-c1ncccn1 [Compound I-8]", "0 to 5%"],
  ["Nc1ccnc(-c2nc(-c3nccs3)n(Cc3ccccc3F)n2)c1 [Compound I-44]", "40 to 60%"],
  ["Fc1ccccc1Cn1nc(-c2cscn2)nc1-c1cnccn1 [Compound I-55]", "0 to 5%"],
  ["COC(=O)Nc1c(N)nc(-c2nc(-c3nccs3)n(Cc3ccccc3F)n2)nc1N [Compound I-60]", "10 to 20%"],
  ["Fc1ccccc1Cn1nc(-c2ccccn2)nc1C1CC1 [Compound I-21]", "0 to 5%"],
  ["Fc1ccccc1Cn1nc(-c2cscn2)nc1-c1ncccn1 [Compound I-20]", "0 to 5%"],
  ["Fc1ccccc1Cn1nc(-c2nccs2)nc1-c1ccccn1 [Compound I-26]", "10 to 20%"]
]}
